Assay: NCI Yeast Anticancer Drug Screen. Data for the mec2-1 strain (AID 157)
Details: S. cerevisiae mec2-1 strain, at 50.0 µM
Compounds without any hit were thinned out: in the full panel of roughly 79,000, 15% have a hit. The source made the active and inactive calls. Rule as the data show it: active = growth inhibition above about 70%; inactive = the rest.
# output must be one of active, inactive

INSERT INTO measurements (compound, assigned_class) VALUES
  ('O=C(COc1cc(Cl)ccc1Cl)NCc1ccc(Cl)cc1', 'inactive'),
  ('O=C1N(Cc2ccccc2)[C@H]2CS(=O)(=O)C[C@@H]2N1Cc1ccccc1', 'inactive'),
  ('CC(C)CCOC(=O)C(O)C(O)C(=O)OCCC(C)C (stereo not given)', 'inactive');

## Task Please state the recorded outcome for this compound: CC[N+](C)(CCO)C(Cc1ccccc1)c1ccccc1 (stereo not given)
## Result inactive

## Task Record: COc1ccc2c3c(ccc2c1)C1CC(=O)CC1CC3 (stereo not given)
## Result inactive

## Task Record: O=C(O)c1ccc(F)cc1F
## Result inactive

## Task Record: CC(C)(O)C(O)COc1c2c(cc3oc(=O)ccc13)OCO2 (stereo not given)
## Result inactive

## Task Record: O=P(CCc1ccccc1)(OCCCl)OCCCl
## Result inactive

## Task Record: COc1ccc(N2NC(c3ccccc3)(c3ccccc3)C(C)C2=O)cc1 (stereo not given)
## Result inactive

## Task Record: COc1cccc(C(=O)O)c1O
## Result inactive

## Task Record: O=P(O)(O)Oc1ccc(NCCO)cc1
## Result inactive

## Task Record: Nc1ccc([N+](=O)[O-])cc1C(=O)Oc1ccccn1
## Result inactive

## Task Record: CCN=C1Nc2ccccc2-n2c(nn3nc4ccccc4c23)N1CC
## Result inactive

## Task Record: Cc1cccc(-c2nnc3s/c(=C\c4ccc(N(C)C)cc4)c(=O)n23)c1
## Result inactive

## Task Record: CC(C)(C)OC(=O)N(CCCCN(CCCNC(=O)C(F)(F)F)C(=O)OC(C)(C)C)CCCNC(=O)C(F)(F)F
## Result inactive

## Task Record: CCCCOC(=O)NC(=O)c1cc2cc(I)cc(I)c2oc1=O
## Result inactive

## Task Record: COc1cc(OC)c(C2c3cc4c(cc3OC(C)(N3CCCC3)C2C)OCO4)c(OC)c1 (stereo not given)
## Result inactive

## Task Record: O=C1CCC2(CC1)SCCCS2
## Result inactive

## Task Record: O=C(O)C(Nc1ccc(Cc2ccc(NC(C(=O)O)c3ccccc3)cc2)cc1)c1ccccc1 (stereo not given)
## Result active

## Task Record: OCC(O)COc1ccccc1F (stereo not given)
## Result inactive

## Task Record: CCC=Nc1ccccc1CO
## Result inactive

## Task Record: Cc1ccc(C)c(NC(=O)C(=O)CC(=O)c2cccc3ccccc23)c1
## Result inactive

## Task Record: CN(C)c1ccc(N=O)c(O)c1
## Result inactive

## Task Record: NC(=O)C(=O)C(c1ccccc1)c1ccccc1
## Result inactive

## Task Record: N/N=C(/Cc1nc2ccc(C(=O)c3ccccc3)cc2[nH]c1=O)C(=O)Nc1ccc([N+](=O)[O-])cc1[N+](=O)[O-]
## Result inactive

## Task Record: CCC1=CCC(P(=O)(c2ccccc2)c2ccccc2)CC1C (stereo not given)
## Result inactive

## Task Record: COc1ccc(CC(CN)P(=O)(O)O)cc1 (stereo not given)
## Result inactive

## Task Record: O=C(CC(C(=O)c1cccs1)c1ccsc1)c1cccs1 (stereo not given)
## Result inactive

----------
Assay: NCI Yeast Anticancer Drug Screen. Data for the mec2-1 strain (AID 157)
Conditions: S. cerevisiae mec2-1 strain, at 50.0 µM, active compounds read high
Compounds without any hit were thinned out: in the full panel of roughly 79,000, 15% have a hit. Active and inactive are the calls of the source. Cut-off read from the data, not from the text of the source: active = growth inhibition above about 70%; inactive = the rest.
In this section, each of the compounds is paired with its reported growth inhibition.

// below: answered compounds
INSERT INTO measurements (compound, measured_quantity, measured_value) VALUES
  ('CC1=C(C(=O)NCc2ccccc2)C(c2ccco2)C(C(=O)NCc2ccccc2)=C(C)N1', 'growth inhibition', '-20.4% (inactive)'),
  ('Fc1cccc(-c2nnc(-c3ccccc3)o2)c1', 'growth inhibition', '23.1% (inactive)'),
  ('O=C1c2ccccc2C(=O)N1/N=[N+](\[O-])N1Cc2ccccc2C1', 'growth inhibition', '27.9% (inactive)');

## Task Looking for the measured growth inhibition of O=C(O)CCc1ccccc1C(=O)O , can you help?
## Result -19.6% (inactive)

## Task Record: CCCCOC(=O)c1cccc(C(=O)OCCCC)n1
## Result -18.9% (inactive)

## Task Record: O=C(NC(CSC(=O)OCc1ccccc1)C(=O)Oc1ccc([N+](=O)[O-])cc1)OCc1ccccc1 (configuration not stated)
## Result -7.4% (inactive)

## Task Record: C=CCCCCCCCCC(N)=O
## Result -8.4% (inactive)

## Task Record: CC(C)(C)c1ccc(O)c(CN(Cc2cc(C(C)(C)C)ccc2O)c2ccccc2)c1
## Result 26.9% (inactive)

----------
Assay: NCI Yeast Anticancer Drug Screen. Data for the bub3 strain (AID 167)
Conditions: S. cerevisiae bub3 mutant strain, at 50.0 µM, active compounds read high
About 79,000 compounds went through this panel and 15% of them were active in at least one assay; those are over-represented in the sample as a whole.
measured quantity: growth inhibition (%)
Hi! Could you send only the number? It should be in %, unit omitted.

// below: answered molecules
INSERT INTO measurements (molecule, measured_value) VALUES
  ('CCOC(=O)C(=NNc1cc(OC)c(Cl)cc1OC)C(=O)OCC', 1.7),
  ('CC(=O)OC1CCC2(C)C3C/C(=N\O)C4(C)C(C(C)OC(C)=O)CCC4C3CCC2(C)C1 (stereo unspecified)', 93.2),
  ('Cc1cc(N(CCC#N)CCC#N)ccc1/C=C(\NC(=O)/C=C/c1ccccc1)NC(=O)Nc1ccc(Cl)cc1', 12.5),
  ('COC1/C=C/OC2(C)Oc3c(C)c(O)c4c(c3C2=O)C(N)=C(Nc2ccccc2)C(=NC(=O)C(C)=CC=CC(C)C(O)C(C)C(O)C(C)C(OC(C)=O)C1C)C4=O (stereo unspecified)', 16.9);

## Task Looking for the measured growth inhibition of COC(=O)C(Cc1ccccc1)NC(=O)Cn1ccnc1[N+](=O)[O-] (stereo unspecified) , can you help?
## Result -16

## Task Record: O=C(/C(=C\c1ccc(Cl)cc1)c1ccccc1)c1ccccc1
## Result -23.4

## Task Record: Nc1nc(CCC(=O)Nc2cccc(C(F)(F)F)c2)cc(-c2cccc3ccccc23)n1
## Result 23.1

## Task Record: Nc1nc(=O)n(C2OC(CO)C(O)C2Cl)cc1I (stereo unspecified)
## Result 7.8

----------
Experiment: NCI Yeast Anticancer Drug Screen. Data for the bub3 strain (AID 167)
Conditions: S. cerevisiae bub3 mutant strain, at 50.0 µM, active compounds read high
This is part of a sample that, as a whole, favours compounds with a hit. Of some 79,000 tested, about 15% had one in any assay. Active and inactive are the calls of the source. No stated cut-off is given here; in the data, active means growth inhibition above about 70%; inactive means the rest.
In this section, each of the compounds is paired with its reported growth inhibition.

// below: answered compounds
INSERT INTO assay_data (compound, measured_value) VALUES
  ('Cc1cc(C(=O)CSC(=S)SC(C)(C)C)ccc1Cl', '-17.9% (inactive)'),
  ('c1ccc2c(c1)cc1n2CC2CN=NC12 (centres undefined)', '-5.55% (inactive)'),
  ('CCC(C(C)=O)C(C)C (centres undefined)', '-2% (inactive)'),
  ('CN(NC(=O)CCCl)C1=NCCCCN1', '-0.5% (inactive)'),
  ('Clc1ccc(C2OCCCO2)cc1', '-8.4% (inactive)');

## Task Looking for the measured growth inhibition of COC(=O)C(/C(=N\O)C(=O)Nc1cccc(Cl)c1C)c1cnc2ccccc2n1 (centres undefined) , can you help?
## Result -0.2% (inactive)

## Task Record: CSc1ccc(OC(=O)Nc2ccc(Cl)c(Cl)c2)cc1C
## Result 94.7% (active)

## Task Record: CSc1ccc2c(c1)Cc1cc(NC(C)=O)ccc1-2
## Result -11.8% (inactive)

## Task Record: CN(C)c1ccc(/C=C(\C#N)c2c(Br)cccc2Br)cc1
## Result 3.1% (inactive)

## Task Record: O=C(O)Cc1cccc2c(=O)cc(Cc3ccccc3)oc12
## Result 20.1% (inactive)

## Task Record: CCCCCNc1ccnc(=O)[nH]1
## Result -12.9% (inactive)

## Task Record: O=C(Nc1ccc(Nc2ccc(NC(=O)c3ccccc3)c3c2C(=O)c2ccccc2C3=O)c2c1C(=O)c1ccccc1C2=O)c1ccccc1
## Result -1.95% (inactive)

----------
In this section, each of the compounds is paired with its reported growth inhibition.
Test: NCI Yeast Anticancer Drug Screen. Data for the sgs1 mgt1 strain (AID 161);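 also: 0% = growth of cultures given vehicle only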
Details: S. cerevisiae sgs1 mgt1 strain, at 50.0 µM, active compounds read high
This is part of a sample that, as a whole, favours compounds with a hit. Of some 79,000 tested, about 15% had one in any assay.
Hi! Could you send only the number? It should be in %, unit omitted.

INSERT INTO results (compound, measured_value) VALUES
  ('O=C(Nc1cc(Cl)ccc1Cl)C(=O)C(c1cnc2ccccc2n1)[N+](=O)[O-] (configuration not stated)', -23.8),
  ('CCOC(=O)CCc1cn2cc(Br)nc(OC)c2n1', 14.6),
  ('O=C(Nc1ccccc1)Sc1nc2ccccc2s1', 45.5);

## Task Looking for the measured growth inhibition of CCCC(O)C(C)(C)C (configuration not stated) , can you help?
## Result -51.6

## Task Record: COc1ccccc1CC/C(C)=N/NS(=O)(=O)c1ccc(C)cc1
## Result 6.35

## Task Record: O=C(c1ccccc1)N1C(=O)c2ccccc21
## Result -12.8

## Task Record: CC[C@@H](C)[C@H]([C@H](CC(=O)N1CCC[C@@H]1[C@@H](OC)[C@H](C)C(=O)N[C@H](Cc1ccccc1)c1nccs1)OC)N(C)C(=O)[C@H](NC(=O)[C@@H](C(C)C)N(C)C)C(C)C
## Result -2.2

## Task Record: Cc1ccc(S(=O)(=O)N/N=C/c2oc(-c3ccncc3)c(-c3ccncc3)c2[N+](=O)[O-])cc1
## Result 17.4

## Task Record: CCOC(=O)NC(C(F)(F)F)(C(F)(F)F)P(=O)(OC(C)C)OC(C)C
## Result -12.4

## Task Record: N#CCC(CC#N)C(c1cccc2ccccc12)c1cccc2ccccc12
## Result -3.85
